- EXPERIMENTAL TARGET: human ALK5 (Homo sapiens, UniProt P36897)
- Construct: purchased Eurofins (Kinase Profiler service)
- Sequence (P36897 34-503): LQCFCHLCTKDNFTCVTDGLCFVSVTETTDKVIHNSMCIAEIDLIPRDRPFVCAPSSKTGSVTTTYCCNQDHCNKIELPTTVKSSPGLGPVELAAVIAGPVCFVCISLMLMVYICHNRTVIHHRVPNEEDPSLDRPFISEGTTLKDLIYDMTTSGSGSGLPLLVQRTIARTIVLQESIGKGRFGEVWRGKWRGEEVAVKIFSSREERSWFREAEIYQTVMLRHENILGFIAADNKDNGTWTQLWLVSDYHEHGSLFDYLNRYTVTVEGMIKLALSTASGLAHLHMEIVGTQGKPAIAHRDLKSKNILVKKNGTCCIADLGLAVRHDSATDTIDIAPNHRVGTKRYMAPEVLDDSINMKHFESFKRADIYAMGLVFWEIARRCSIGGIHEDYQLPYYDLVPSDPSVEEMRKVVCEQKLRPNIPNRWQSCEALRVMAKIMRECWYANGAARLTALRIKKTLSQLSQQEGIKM
- ASSAY TEXT: KinaseProfiler enzymatic activity inhibition
- Assay type: biochemical
- RECORDED CONDITIONS: KinaseProfiler, 9-point curve, top 10 μM; read-out: Enzyme activity inhibition IC50 (nM) ALK5 (TGFBR1)
IC50 under 400 nM gets true, anything at or over 400 nM gets false.

Study these solved cases before continuing.
| COMPOUND | EXPERIMENTAL TARGET | ASSIGNED CATEGORY |
| --- | --- | --- |
| COc1cc(C(=O)COc2ccc3nccc(-c4c(-c5cccc(C)n5)nn5c4CCC5)c3c2)ccc1O [prodrug of formula III] | human ALK5 (Homo sapiens, UniProt P36897) | false |
| Cc1cccc(-c2nn3c(c2-c2ccnc4cc(O)ccc24)CCC3)n1 [Reference compound 338, reference compound] | human ALK5 (Homo sapiens, UniProt P36897) | true |
| Oc1ccc2c(-c3c(-c4ccccn4)nn4c3CCC4)ccnc2c1 [Reference compound 337, reference compound] | human ALK5 (Homo sapiens, UniProt P36897) | true |
| Cc1cccc(-c2nn3c(c2-c2ccnc4ccc(O)cc24)CCC3)n1 | human ALK5 (Homo sapiens, UniProt P36897) | true |

For Cc1cccc(-c2nn3c(c2-c2ccnc4ccc(OC(=O)N5CCC(N6CCCCC6)CC5)cc24)CCC3)n1 [prodrug of formula IV] , is the recorded IC50 below the cut-off of 400 nM?
false

###

- Tested on: TGFβ signaling (12×CAGA-Firefly_Luc reporter) in HEK293T cells
- ASSAY TEXT: In vitro CAGA-Luciferase reporter assay
- Assay type: cell-based
- RECORDED CONDITIONS: Homo sapiens, HEK-293T, 5 ng/ml TGFB1, 16h, read-out: IC50, TGFβ signaling inhibition (CAGA-Luciferase)
Field: IC50. Provide a value for each of the compounds that follow.
One number for each entry, in nM.

| COMPOUND | EXPERIMENTAL TARGET | MEASUREMENT NAME | DATA VALUE |
| --- | --- | --- | --- |
| Cc1cccc(-c2nn3c(c2-c2ccnc4ccc(O)cc24)CCC3)n1 | TGFβ signaling (12×CAGA-Firefly_Luc reporter) in HEK293T cells | IC50 | 165 |

Give the value of IC50 reported for the following: Cc1cccc(-c2nn3c(c2-c2ccnc4ccc(C(N)=O)cc24)CCC3)n1 [Galunisertib, reference compound]
359

###

- EXPERIMENTAL TARGET: ALK5 (TGFBR1) (Homo sapiens, UniProt P36897)
- Sequence (P36897 34-503): as above
- ASSAY TEXT: KINOMEscan affinity, competition binding
- RECORDED CONDITIONS: KINOMEscan
MEASUREMENT NAME: Kd (nM)
Give bare numbers, in nM.

Recall the reported Kd of Cc1cccc(-c2nn3c(c2-c2ccnc4ccc(O)cc24)CCC3)n1 [compound of formula I] on ALK5 (TGFBR1) (Homo sapiens, UniProt P36897) and write it down.
20

###

- System: proteins in the SafetyScreen44 panel (versus ALK5)
- ASSAY TEXT: SafetyScreen44 safety panel
- RECORDED CONDITIONS: SafetyScreen44 panel (Eurofins) of off-target proteins; read-out: selectivity ratios for the proteins in the SafetyScreen44 panel
MEASUREMENT NAME: selectivity ratio at 10 μM

Supply selectivity ratio at 10 μM value. Item: "Cc1cccc(-c2nn3c(c2-c2ccnc4ccc(O)cc24)CCC3)n1"
> 500
